Test system: FXR:RXRa (NR concentration 270 nM, RXRa partner concentration 90 nM)
EXPERIMENT SUMMARY: PBM binding z-score (relative to random genomic background probes); higher = stronger binding; sequences stand for … in GC…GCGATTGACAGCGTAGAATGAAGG
MEASURED QUANTITY: PBM binding z-score
# print the numeric value only

Lab note: sequence `ATATGTATGTTACATCCGGGTCATTCAGGCTATG` tested on FXR:RXRa (NR concentration 270 nM, RXRa partner concentration 90 nM); recorded PBM binding z-score was 1.15

// returns PBM binding z-score for `CGTCCAAGGTAAAGGTCAGTGAAAGAGACTCGAA` with FXR:RXRa (NR concentration 270 nM, RXRa partner concentration 90 nM); value = 3.41

Reading of PBM binding z-score for `CCTTCTGGGCCAAGGTCATTGATCAGTCAAAGCA` with FXR:RXRa (NR concentration 270 nM, RXRa partner concentration 90 nM): 2.83
